METHOD: amyloid nucleation score (Sup35N fusion, yeast selection) (log enrichment); library NNK3; higher = more nucleation; inactive = no reads after selection;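 further: zero at mode of non-aggregating sequences after 7 days selection at 30°C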
ENDPOINT: amyloid nucleation score

Use the examples below as a reference point.
SUBSTANCE | ENDPOINT VALUE
TLGLAVFDNSMDRWYEDVKK | inactive
FVYLSSKYIMSQMFKGKQMY | inactive
HAMCHVVGTRISGYLCAYGT | inactive
ISFSSES | inactive
DFCMVVHCIKFMGLCRGGDV | 1.02
ALWNTFFLCENTFRMVGFVC | inactive
GLVWVN | inactive
PRAMLPDWSSALVWWLN | inactive

Please fill in: amyloid nucleation score reported for `LWINCSWMFNWM` = 2.43

Please fill in: amyloid nucleation score reported for `FAEYISQ` = 0.293

Please fill in: amyloid nucleation score reported for `SYGLFR` = inactive

----------
METHOD: amyloid nucleation score (Sup35N fusion, yeast selection) (log enrichment); library NNK2; higher = more nucleation; inactive = no reads after selection
Give measured amyloid nucleation score for each item. Keep answers brief.

Please fill in: amyloid nucleation score reported for `NSKLPAEFLFFQYECMESPR` = -0.758

Please fill in: amyloid nucleation score reported for `HACSMSIFEFRMCKKWSLLV` = -0.848

Please fill in: amyloid nucleation score reported for `KISFVALAVDARYGWCLFHY` = 0.358

Please fill in: amyloid nucleation score reported for `GAKIGKMDVLGFDGDGLIYI` = 1.42

Please fill in: amyloid nucleation score reported for `WYFIGKCRDGVSDGMRNNVR` = 0.148

Please fill in: amyloid nucleation score reported for `TSVNSILRYFRSRAMLKQGS` = 1.11

Please fill in: amyloid nucleation score reported for `ILVMKFNSWLADEDRVRSVI` = 1.21

Please fill in: amyloid nucleation score reported for `FKFYYVYYDITFYEC` = -0.454

----------
METHOD: amyloid nucleation score (Sup35N fusion, yeast selection) (log enrichment); library NNK2; higher = more nucleation; inactive = no reads after selection
ENDPOINT: amyloid nucleation score

Use the examples below as a reference point.
SUBSTANCE | amyloid nucleation score
LYLSVPQYYFSCLFSMVEVQ | -1.07
GAGHNNLLEDAFTSRSVTAR | 0.489
DKSNGVTMVESITSGG | -0.303
KCILDRVRGTGLGIMKLKRG | 0.306
FATQGSHKAVLGRSVHHLCR | -0.447

Please fill in: amyloid nucleation score reported for `FFKRSSFKMGSRITETRYRR` = -0.728

Please fill in: amyloid nucleation score reported for `WIWEKSHWSENISMVRCDVS` = 0.379

Please fill in: amyloid nucleation score reported for `LVEGCILSRHQESVNLRFCL` = 1.22

Please fill in: amyloid nucleation score reported for `VFSDWVSSKPLRSVVPCFCN` = -0.496

----------
Give measured amyloid nucleation score for each item. Keep answers brief.
METHOD: amyloid nucleation score (Sup35N fusion, yeast selection) (log enrichment); library NNK2; higher = more nucleation; inactive = no reads after selection
Write the value as a bare number.

Please fill in: amyloid nucleation score reported for `GGIRYVSVFQIFASCCFSRV` = 8.98

Please fill in: amyloid nucleation score reported for `GQLGNCLVSAAFLFAFIVLS` = 4.33

Please fill in: amyloid nucleation score reported for `MCCFRNSNVGAYRSSSIVNG` = -0.403

Please fill in: amyloid nucleation score reported for `GILVRRYAWSELMNGED` = 0.116

----------
METHOD: amyloid nucleation score (Sup35N fusion, yeast selection) (log enrichment); library NNK1; higher = more nucleation; inactive = no reads after selection
ENDPOINT: amyloid nucleation score
Write the value as a bare number.

Please fill in: amyloid nucleation score reported for `YERIPFLDSGTYGIYDWTAR` = -0.372

Please fill in: amyloid nucleation score reported for `VVDEVNTGNHDLTTSLLQLS` = -0.435

Please fill in: amyloid nucleation score reported for `SVLTGNVTGDDGLCKSSIYA` = 0.515

Please fill in: amyloid nucleation score reported for `VCGVRMVLALSRFVLSAINN` = 0.177

Please fill in: amyloid nucleation score reported for `HFLVKCLLLLSVSSKLCVSR` = 0.564

Please fill in: amyloid nucleation score reported for `YFVGGF` = -0.859

Please fill in: amyloid nucleation score reported for `SLDLFSIKATRSDWSGFLRT` = -0.613

Please fill in: amyloid nucleation score reported for `LPAGSDVCLY` = 3.23

Please fill in: amyloid nucleation score reported for `LVRGVHT` = -0.446

Please fill in: amyloid nucleation score reported for `CLINFP` = 0.722

Please fill in: amyloid nucleation score reported for `VYYYVLSLV` = 0.207

Please fill in: amyloid nucleation score reported for `RNQFDYDRWYVMRSHYRVIC` = -0.526

Please fill in: amyloid nucleation score reported for `IYNIVGSLMSSAVFPGQSIS` = -1.38

Please fill in: amyloid nucleation score reported for `FYYVRLDARMVDSSSFV` = -0.542

Please fill in: amyloid nucleation score reported for `ARHKSENWNYAVDLLSLILS` = 1.59

Please fill in: amyloid nucleation score reported for `FISRCSFAGSCVK` = -1.27

Please fill in: amyloid nucleation score reported for `PNIEPCLSSFVSKSLDDPRT` = -0.127

Please fill in: amyloid nucleation score reported for `TFAFISLDMVWLASAH` = -0.051

Please fill in: amyloid nucleation score reported for `QHLRFSFVPE` = 0.312

Please fill in: amyloid nucleation score reported for `QANAMNYKEKLFNFRYRGAM` = -0.722

Please fill in: amyloid nucleation score reported for `ILDMMAKV` = 1.56

Please fill in: amyloid nucleation score reported for `RQAFIRGGLEAAKGAYHVLG` = -1.38

Please fill in: amyloid nucleation score reported for `LSRSYYNQFLTDFKGSGTYM` = -0.269

Please fill in: amyloid nucleation score reported for `KKPQSGSCTRLSSESYKSVY` = 0.464

Please fill in: amyloid nucleation score reported for `DDSFVLFW` = -0.042

Please fill in: amyloid nucleation score reported for `LITMGMTRIYILMISDYLKF` = 0.701

Please fill in: amyloid nucleation score reported for `GALVYAFYAAS` = 0.525

Please fill in: amyloid nucleation score reported for `CDSTVMRGLYCGRVVYSLFV` = 0.721

Please fill in: amyloid nucleation score reported for `WRVYQSFGDLAVCTF` = 0.326

Please fill in: amyloid nucleation score reported for `FVSVWDILL` = -0.049

Please fill in: amyloid nucleation score reported for `MIRQFSVSICSTRSVCVHPR` = -0.135

Please fill in: amyloid nucleation score reported for `GRLTLSRGRCCQGSLNTVYP` = 0.007

Please fill in: amyloid nucleation score reported for `DRYSNTTFNHIA` = 0.779

Please fill in: amyloid nucleation score reported for `KSTTYKNLPSHGLRNSICTK` = 0.842

Please fill in: amyloid nucleation score reported for `CSWLSFVEEVGLGSERGVRG` = -0.629

Please fill in: amyloid nucleation score reported for `KENRFISQSDTALYSIKKQH` = 0.549

Please fill in: amyloid nucleation score reported for `MYIFVDIFAAQLVTRWKGFE` = -0.97

Please fill in: amyloid nucleation score reported for `CRTCGFPLLYSAELVLEVC` = 0.018

Please fill in: amyloid nucleation score reported for `SCKDSCTEYSGAIYVLVWVK` = 0.604

Please fill in: amyloid nucleation score reported for `TFTMSWLK` = 3.22

Please fill in: amyloid nucleation score reported for `TLYCTFSTWYPLYKLQHDRY` = 4.55

Please fill in: amyloid nucleation score reported for `PCLVSCHPGADAYLYDNLEV` = -0.856

Please fill in: amyloid nucleation score reported for `SKFNAIMNCDVIKRSLNCIN` = 0.022

Please fill in: amyloid nucleation score reported for `ISRDNNQTGLMGGLERRTES` = 0.533

Please fill in: amyloid nucleation score reported for `DGTNAYV` = -0.986

Please fill in: amyloid nucleation score reported for `FCVRICNCRIWCLCSLTKSL` = -0.624

Please fill in: amyloid nucleation score reported for `LCSWADLDNKDLKSPR` = 0.102

Please fill in: amyloid nucleation score reported for `PFQECFLRKVYWIIWRSRPK` = 0.255

Please fill in: amyloid nucleation score reported for `WPWCQYTYRFLSIMCKVFL` = 0.288

Please fill in: amyloid nucleation score reported for `DKAFLWQFEELVAA` = -0.331

Please fill in: amyloid nucleation score reported for `SINLCGLWKVYYILAFMW` = -2.26

Please fill in: amyloid nucleation score reported for `DWCYYKRADRRTSSESSRAG` = 0.333

Please fill in: amyloid nucleation score reported for `LIELRIWLLHLPMYGVLESI` = -0.758

Please fill in: amyloid nucleation score reported for `SCWVDSDHLNCFIYFTFVNT` = -1.27

Please fill in: amyloid nucleation score reported for `WEKFIVAQIMVGHFGWVFQT` = 5.36

Please fill in: amyloid nucleation score reported for `LVYSFRKTFSC` = 7.52

Please fill in: amyloid nucleation score reported for `GSTNERYAKNGTS` = 0.32

Please fill in: amyloid nucleation score reported for `LAPISSASLQTFPVAIFRFR` = 0.122

Please fill in: amyloid nucleation score reported for `CNCMVLSPLDVMEPIAMGFQ` = 0.455

Please fill in: amyloid nucleation score reported for `LWCITYH` = 4.14

Please fill in: amyloid nucleation score reported for `LNWVLFADLLWPR` = 0.212

Please fill in: amyloid nucleation score reported for `PNPWRLRWLLALDMNLVGLQ` = 0.376

Please fill in: amyloid nucleation score reported for `NIVFMCMCGLDI` = 0.895

Please fill in: amyloid nucleation score reported for `LYLYNYRFAGLFFIDLETIW` = -0.415

Please fill in: amyloid nucleation score reported for `KVFISCYLWYA` = 3.8

Please fill in: amyloid nucleation score reported for `HRPYLCGISYGGSRCELYTA` = 0.839

Please fill in: amyloid nucleation score reported for `FFLMIQSVT` = 0.84

Please fill in: amyloid nucleation score reported for `FTISSKLRYIGTGVINGPVD` = -0.397
